# System: IL-5
# Assay Procedure: Cytokine assay, IL-5 release from PBMC
# Format: cell-based
# Run Parameters: human PBMC, 20 ug/mL PHA, supernatant at 48 hours
Readout Label: IC50

Example entries begin here.
In [3]: df
Out[3]:
                                   molecule  measured_value
0  CC(C)S(=O)(=O)c1ccc(Oc2ccc3c(c2)COB3O)cc1      4 to 10 µM
1       CCOC(=O)c1ccc(Oc2ccc3c(c2)COB3O)cc1      4 to 10 µM
2       COc1nc(Oc2ccc3c(c2)COB3O)ccc1C(N)=O       1 to 4 µM

## Input Which measured IC50 value corresponds to COCCNc1ccc(C#N)c(Oc2ccc3c(c2)COB3O)n1 ?
## Output < 1 µM

## Input Which measured IC50 value corresponds to N#Cc1ccc(Oc2ccc3c(c2)COB3O)cc1C(F)(F)F ?
## Output < 1 µM

----------
# Test system: TNF-α
# Assay Procedure: Cytokine assay, TNF-α release from PBMC
# Type: cell-based
# Run Parameters: Homo sapiens, PBMC, 24 h, 1 μg/mL LPS, supernatant at 24 hours
pIC50: −log10 of the molar value.
Readout Label: pIC50

## Input Which measured pIC50 value corresponds to O=C(NCc1ccccn1)c1ccc(Oc2ccc3c(c2)COB3O)cc1 ?
## Output 5.40 to 6.00

## Input Which measured pIC50 value corresponds to CCN(CC)C(=O)c1ccc(Oc2ccc3c(c2)COB3O)nc1 ?
## Output > 6.00

## Input Which measured pIC50 value corresponds to N#Cc1cnc(Oc2ccc3c(c2)COB3O)cc1OCCOC1CCCCO1 (stereo not shown) ?
## Output > 6.00

## Input Which measured pIC50 value corresponds to N#Cc1ccc(Oc2ccc3c(c2)COB3O)nc1NCCO ?
## Output > 6.00

----------
# Test system: IL-10
# Assay Procedure: Cytokine assay, IL-10 release from PBMC
# Format: cell-based
# Run Parameters: human PBMC, 20 ug/mL PHA, supernatant at 48 hours
Readout Label: IC50

Example entries begin here.
>>> print(df.to_string())
                                   compound  measured_value
0  CCOC(=O)COc1cc(Oc2ccc3c(c2)COB3O)ccc1C#N       1 to 4 µM
1  COC(=O)c1cc(F)c(Oc2ccc3c(c2)COB3O)c(F)c1         > 10 µM
2  COc1ccc(C2CNC(=O)C2)cc1OC1CCCC1 (stereo not shown) [Rolipram, rolipram, reference compound]          < 1 µM
3    CCS(=O)(=O)c1ccc(Oc2ccc3c(c2)COB3O)cc1       1 to 4 µM
4  CCN(CC)C(=O)COc1cc(C#N)ccc1Oc1ccc2c(c1)COB2O       1 to 4 µM

## Input Which measured IC50 value corresponds to COc1nc(Oc2ccc3c(c2F)COB3O)ccc1C#N ?
## Output > 10 µM

## Input Which measured IC50 value corresponds to CN(C)CCNC(=O)c1ccc(Oc2ccc3c(c2)COB3O)cc1 ?
## Output > 10 µM

## Input Which measured IC50 value corresponds to O=C(NCc1ccccc1)c1ccc(Oc2ccc3c(c2)COB3O)cc1 ?
## Output 1 to 4 µM

## Input Which measured IC50 value corresponds to CC(=O)OCCOc1nc(Oc2ccc3c(c2)COB3O)ccc1C#N ?
## Output < 1 µM

## Input Which measured IC50 value corresponds to CCCOC(=O)c1ccc(Oc2ccc3c(c2)COB3O)cc1 ?
## Output > 10 µM
